Biological target: full length human TREX1 (Homo sapiens, UniProt Q9NSU2)
Construct: N-terminally His-Tev tagged full length human TREX1; made in house; host or cells: E. coli
Sequence (Q9NSU2 1-314): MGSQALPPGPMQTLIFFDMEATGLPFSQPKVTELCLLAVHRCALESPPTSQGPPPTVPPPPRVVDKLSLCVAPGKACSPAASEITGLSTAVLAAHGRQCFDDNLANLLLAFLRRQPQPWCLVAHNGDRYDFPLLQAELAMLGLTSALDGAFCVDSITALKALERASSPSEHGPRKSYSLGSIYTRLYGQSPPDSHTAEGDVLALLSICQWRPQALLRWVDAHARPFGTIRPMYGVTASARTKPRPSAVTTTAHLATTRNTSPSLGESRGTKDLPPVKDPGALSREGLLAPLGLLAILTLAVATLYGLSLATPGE
Experiment: hTREX1 Biochemical Assay (fluorescence, dsDNA substrate degradation)
Settings: biochemical, read-out: hTREX1 IC50
Each item that follows carries a reported IC50.

Task: Recorded IC50 of CCn1ncc(C(c2ccc(F)cc2C#N)C(C)c2nc(C(=O)Nc3cnoc3)c(O)c(=O)n2C)c1C (single isomer, unassigned) [Example 65 D2E2] , please.
Output: < 1 nM

Task: Same thing, different compound: COCCn1cc(C(c2ccccc2C#N)C(C)c2nc(C(=O)Nc3cnoc3)c(O)c(=O)n2C)c(C)n1 (single isomer, unassigned) [Example 71 D1E1]
Output: < 1 nM

Values compiled from patent US20240246946A1.
